- Target Or System: T1, cynomolgus monkey CD3 on cynomolgus monkey PBMC or T cell line HSC-F (cynomolgus monkey, UniProt Q95LI5 22-198)
- T1 construct: whole, on cells; Native CD3 complex on monkey T cells; also called cynomolgus monkey CD3 (PBMC); cynomolgus monkey CD3 antigen
- T1 sequence (Q95LI5 22-198): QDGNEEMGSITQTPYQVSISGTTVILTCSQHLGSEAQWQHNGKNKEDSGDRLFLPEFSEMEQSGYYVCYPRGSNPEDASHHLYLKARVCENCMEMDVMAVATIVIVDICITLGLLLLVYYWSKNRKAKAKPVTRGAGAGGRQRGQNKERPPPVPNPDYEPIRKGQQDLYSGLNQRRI
- Test Method Notes: flow cytometry on cynomolgus monkey PBMC
Measured Metric: binding result

>>> reported_result("C3E-7079 (CDR modified humanized anti-CD3 scFv) (scFv, the change is already in the entry) scFv: GEVQLVESGGGLVQPGGSLRLSCAASGVTFNYYGMSWIRQAPGKGLEWVASITSSGGRIYYPDSVKGRFTISRENTQKTLYLQMNSLRAEDTAVYYCTLDGRDGWVAYWGQGTLVTVSSGGGGSGGGGSGGGGSNFMLTQPHSVSESPGKTVTISCKRNTGNIGSNYVNWYQQHEGSSPTTIIYRDDKRPDGVSDRFSGSIDRSSKSASLTISNLKTEDEADYFCQSYSSGFIFGGGTKLTVLGAAAGAGGDYKDDDDKGAAAHHHHHH")
"binds"
